system_name: T1, GABARAP (for BLI) (human, UniProt O95166 1-117)
T1 construct: human GABARAP in the pAL plasmid (GST, 3C site)
assay: BLI; biotinylated LIR peptide immobilized on streptavidin biosensor, ATG8 in solution; 25 mM Tris pH 7.5, 150 mM NaCl, 0.5 mM TCEP, 0.1% Tween20, 1 mg/ml BSA; 25 °C; Kd from response against concentration
assay_setup: both partners purified
*: point of attachment. Biotin = O=C1N[C@H]2[C@H](CS[C@H]2CCCCC(=O)*)N1; linker = not defined here
reported_property: pKd
# reply with the number alone; pKd is -log10 of concentration in mol/L

## Input Given {Biotin-linker}-KEEEEDSTFTNISLADDIDH-NH2 (reading uncertain, SCOC isoform 3 aa 6-25; also called SCOC (WT) LIR domain peptide; SCOC LIR; source: synthetic peptide) [SCOC WT (aa 6–25) LIR peptide] , state its recorded pKd.
## Output 5.44

Cited source: paper PMC8202330
